Numbers sourced from ChEMBL document CHEMBL5352429.

System: Salmonella typhimurium
Test: Antibacterial activity against Salmonella typhimurium DT104 in the presence of NH4Cl by MH broth based assay
Assay type: functional, Salmonella enterica subsp. enterica serovar Typhimurium
Conditions: Salmonella enterica
Peptide text beside a SMILES is read from it.
Readings of MIC for the listed compounds

Example results:
C[C@@H](O)[C@H](NC(=O)[C@H](CS)NC(=O)[C@H](CCCCN)NC(=O)[C@@H](N)Cc1c[nH]c2ccccc12)C(=O)N[C@@H](CCCCN)C(=O)N[C@@H](CO)C(=O)NCC(=O)N[C@@H](CS)C(=O)N[C@@H](CCCCN)C(=O)N[C@@H](Cc1c[nH]c2ccccc12)C(N)=O (H-WKCTKSGCKW-NH2) : > 128 µg/mL
CC(C)[C@H](NC(=O)CNC(=O)[C@H](CC(N)=O)NC(=O)CNC(=O)[C@H](Cc1ccc(O)cc1)NC(=O)[C@H](Cc1ccc(O)cc1)NC(=O)[C@@H](N)CCCCN)C(=O)N[C@@H](Cc1c[nH]cn1)C(=O)N[C@@H](CS)C(=O)N[C@H](C(=O)N[C@@H](CCCCN)C(=O)N[C@@H](CO)C(=O)NCC(=O)N[C@@H](CS)C(=O)N[C@@H](CO)C(=O)N[C@H](C(=O)N[C@@H](CC(N)=O)C(=O)N[C@@H](Cc1c[nH]c2ccccc12)C(N)=O)C(C)C)[C@@H](C)O (H-KYYGNGVHCTKSGCSVNW-NH2) : 64 µg/mL

In: Record CC(C)C[C@H](NC(=O)[C@H](CCCCN)NC(=O)[C@H](CS)NC(=O)CNC(=O)[C@H](CO)NC(=O)[C@H](CCCCN)NC(=O)[C@@H](NC(=O)[C@H](CS)NC(=O)[C@H](CCCCN)NC(=O)[C@@H](N)CC(C)C)[C@@H](C)O)C(N)=O (H-LKCTKSGCKL-NH2) : what is its MIC with Salmonella typhimurium?
Out: > 128 µg/mL
